- Test System: Lp-PLA2 in human plasma (Homo sapiens)
- Construct: from tissue; host or cells: pooled human plasma
- Method: (3b) Lp-PLA2 human plasma alternative Thio-PAF assay
- Assay type: biochemical
- Stated Conditions: (3b) alternative Thio-PAF assay, pooled human plasma; Examples of 266-412 were tested here; read-out: pIC50 in the Lp-PLA2 human plasma assay (converted)
Counter-ions that a name gives are not always drawn.
For each record, write down the corresponding IC50.

IN: Give Lp-PLA2 in human plasma (Homo sapiens) IC50 for N#Cc1cc(COc2cc3n(c(=O)n2)C[C@@H]2C[C@H](O)CN32)ccc1F [Example E382]
OUT: ≤ 100 nM

IN: Give Lp-PLA2 in human plasma (Homo sapiens) IC50 for N#Cc1cc(COc2cc3n(c(=O)n2)CC2COCCN32)ccc1F (stereo not shown) [Example E329]
OUT: ≤ 100 nM

IN: Give Lp-PLA2 in human plasma (Homo sapiens) IC50 for NC1(C(=O)N2CCN3c4cc(OCc5ccc(F)c(F)c5)nc(=O)n4CC3C2)CCOCC1 (stereo not shown) [Example E345]
OUT: ≤ 100 nM

IN: Give Lp-PLA2 in human plasma (Homo sapiens) IC50 for N#Cc1cc(COc2cc3n(c(=O)n2)CC2CN(CCC(=O)O)CCN32)ccc1F (stereo not shown) [Example E325]
OUT: ≤ 100 nM

IN: Give Lp-PLA2 in human plasma (Homo sapiens) IC50 for N#Cc1cc(COc2cc3n(c(=O)n2)CC2CN(CC(=O)O)CCN32)ccc1F (stereo not shown) [Example E324, trifluoroacetic acid Salt]
OUT: ≤ 100 nM

IN: Give Lp-PLA2 in human plasma (Homo sapiens) IC50 for N[C@@H]1C[C@H]2Cn3c(cc(OCc4cc(F)c(Oc5ccnc(C(F)(F)F)c5)c(F)c4)nc3=O)N2C1 [Example E392]
OUT: ≤ 100 nM

IN: Give Lp-PLA2 in human plasma (Homo sapiens) IC50 for N[C@H]1C[C@@H]2Cn3c(cc(OCc4cc(F)c(Oc5ccnc(C(F)(F)F)c5)c(F)c4)nc3=O)N2C1 [Example E388]
OUT: ≤ 100 nM

###

For each record, write down the corresponding IC50.
- Test System: recombinant human Lp-PLA2 (Homo sapiens, UniProt Q13093)
- Sequence (Q13093 22-441): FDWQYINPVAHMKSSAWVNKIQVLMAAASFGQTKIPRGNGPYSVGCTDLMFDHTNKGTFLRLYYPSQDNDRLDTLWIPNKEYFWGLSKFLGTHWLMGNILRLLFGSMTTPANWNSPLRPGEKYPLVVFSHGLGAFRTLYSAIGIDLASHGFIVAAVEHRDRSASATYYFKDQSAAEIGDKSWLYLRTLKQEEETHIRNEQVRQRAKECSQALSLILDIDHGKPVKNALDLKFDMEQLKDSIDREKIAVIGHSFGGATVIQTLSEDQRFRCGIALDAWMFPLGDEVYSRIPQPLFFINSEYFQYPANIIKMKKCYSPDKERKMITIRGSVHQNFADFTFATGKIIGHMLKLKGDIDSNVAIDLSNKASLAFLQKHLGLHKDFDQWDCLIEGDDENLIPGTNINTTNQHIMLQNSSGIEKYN
- Method: (1a) PED6 assay, recombinant human Lp-PLA2 (rhLp-PLA2)
- Type: biochemical
- Stated Conditions: Examples 1-167 and 413-430 were tested here, one experiment or average of multiple experiments, read-out: rhLp-PLA2 (pIC50) (converted)

IN: // lookup IC50 for O=c1nc(OCc2cc(F)cc(F)c2)cc2n1C[C@H]1COCCN21 [Example E129]
OUT: ≤ 100 nM

IN: // lookup IC50 for O=c1nc(OCc2cc(F)c(F)c(F)c2)cc2n1C[C@H]1COCCN21 [Example E116]
OUT: ≤ 100 nM

IN: // lookup IC50 for N#Cc1cc(COc2cc3n(c(=O)n2)CC2CCCCN32)ccc1Oc1cccc(C(F)(F)F)c1 (stereo not shown) [Example E12]
OUT: ≤ 1 nM

IN: // lookup IC50 for O=c1nc(OCc2cc(F)c(Oc3ccc(C(F)(F)F)nc3)c(F)c2)cc2n1CC1CCCCN21 (stereo not shown) [Example E25]
OUT: ≤ 1 nM

###

For each record, write down the corresponding IC50.
- Test System: Lp-PLA2 in human plasma (Homo sapiens, UniProt Q13093)
- Construct: from tissue; host or cells: pooled human plasma
- Method: (3a) Lp-PLA2 human plasma Thio-PAF assay
- Assay type: biochemical
- Stated Conditions: (3a) Thio-PAF assay, pooled human plasma; Examples 1-265 and 413-430 were tested here; read-out: pIC50 in the Lp-PLA2 human plasma assay (converted)
- Source text: (3) Lipoprotein-Associated Phospholipase A2 (Lp-PLA2) Human Plasma Assay The human plasma assay utilizes a thioester analog of PAF (phosphatidylcholine), where hydrolysis yields to the formation of a phospholipid containing a free thiol group. The amount of thiol is quantitated continuously by reacting with CPM (7-diethylamino-3-(4′-maleimidylphenyl)-4-methylcoumarin), a maleimide which increases in fluoresence after Michael addition of thiols. […]

IN: Give Lp-PLA2 in human plasma (Homo sapiens, UniProt Q13093) IC50 for O=c1nc(OCc2cc(F)c(F)c(F)c2)cc2n1CC1OCCN21 (stereo not shown)
OUT: ≤ 10 µM

IN: Give Lp-PLA2 in human plasma (Homo sapiens, UniProt Q13093) IC50 for O=c1nc(NCc2ccc(F)cc2F)cc2n1C[C@H]1CCCN21
OUT: ≤ 10 µM

IN: Give Lp-PLA2 in human plasma (Homo sapiens, UniProt Q13093) IC50 for O=c1nc(OCc2cc(F)c(Oc3ccnc(C(F)(F)F)c3)c(F)c2)cc2n1CC1OCCN21 (single isomer, unassigned) [Example E165]
OUT: ≤ 0.1 µM

IN: Give Lp-PLA2 in human plasma (Homo sapiens, UniProt Q13093) IC50 for O=c1nc(OCc2cccc(F)c2F)cc2n1C[C@H]1COCN21
OUT: ≤ 10 µM

###

For each record, write down the corresponding IC50.
- Test System: recombinant human Lp-PLA2 (Homo sapiens, UniProt Q13093)
- Sequence (Q13093 22-441): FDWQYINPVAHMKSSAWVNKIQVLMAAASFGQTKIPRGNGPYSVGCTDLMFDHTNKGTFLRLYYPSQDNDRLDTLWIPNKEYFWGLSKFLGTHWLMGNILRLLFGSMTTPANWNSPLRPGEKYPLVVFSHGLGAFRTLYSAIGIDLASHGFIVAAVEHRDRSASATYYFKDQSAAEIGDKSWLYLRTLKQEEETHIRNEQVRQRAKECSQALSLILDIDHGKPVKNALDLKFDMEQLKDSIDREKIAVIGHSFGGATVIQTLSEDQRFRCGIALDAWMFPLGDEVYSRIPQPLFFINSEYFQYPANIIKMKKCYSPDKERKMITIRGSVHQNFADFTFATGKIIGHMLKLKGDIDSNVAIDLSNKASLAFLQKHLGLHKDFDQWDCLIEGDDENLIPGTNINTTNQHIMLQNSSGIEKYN
- Method: (1a) PED6 assay, recombinant human Lp-PLA2 (rhLp-PLA2)
- Assay type: biochemical
- Stated Conditions: Examples 1-167 and 413-430 were tested here, one experiment or average of multiple experiments, read-out: rhLp-PLA2 (pIC50) (converted)

IN: // lookup IC50 for CN1c2cc(OCc3cc(F)c(F)cc3F)nc(=O)n2CC12CCCCC2
OUT: ≤ 0.1 µM

IN: // lookup IC50 for O=c1nc(OCc2cc(F)c(Oc3cnn(C(F)(F)F)c3)c(F)c2)cc2n1C[C@@H]1COCN21
OUT: ≤ 0.001 µM

IN: // lookup IC50 for O=c1nc(OCc2ccc(F)c(F)c2)cc2n1CC1CCCCN21 (stereo not shown)
OUT: ≤ 0.1 µM

IN: // lookup IC50 for O=c1nc(NCc2cccc(F)c2)cc2n1C[C@H]1CCCN21
OUT: ≤ 0.1 µM

###

- Test System: recombinant human Lp-PLA2 (Homo sapiens)
- Sequence (Q13093 22-441): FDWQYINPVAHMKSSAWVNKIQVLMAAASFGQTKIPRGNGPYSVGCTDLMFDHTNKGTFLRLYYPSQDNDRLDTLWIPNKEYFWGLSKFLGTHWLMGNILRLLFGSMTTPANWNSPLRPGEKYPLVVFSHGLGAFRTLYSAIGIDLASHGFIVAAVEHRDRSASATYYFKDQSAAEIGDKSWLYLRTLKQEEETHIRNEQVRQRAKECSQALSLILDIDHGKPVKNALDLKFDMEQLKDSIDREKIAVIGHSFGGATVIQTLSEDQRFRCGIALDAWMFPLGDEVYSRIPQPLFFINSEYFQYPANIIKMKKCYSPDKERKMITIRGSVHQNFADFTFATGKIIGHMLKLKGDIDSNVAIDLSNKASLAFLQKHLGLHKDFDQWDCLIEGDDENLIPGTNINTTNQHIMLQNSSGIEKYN
- Method: (1b) hrThioPAF assay, recombinant human Lp-PLA2
- Assay type: biochemical
- Stated Conditions: Examples 266-412 were tested here, one experiment or average of multiple experiments, read-out: rhLp-PLA2 (pIC50) (converted)
Outcome Measure: IC50

IN: // lookup IC50 for Cc1ccc(Oc2c(F)cc(COc3cc4n(c(=O)n3)CC3CNCCN43)cc2F)cn1 (stereo not shown)
OUT: ≤ 10 µM

IN: // lookup IC50 for N[C@H]1C[C@@H]2Cn3c(cc(OCc4cc(F)c(Oc5ccnc(C(F)(F)F)c5)c(F)c4)nc3=O)N2C1
OUT: ≤ 0.001 µM

IN: // lookup IC50 for CN1CC2Cn3c(cc(OCc4ccc(F)c(C#N)c4)nc3=O)N2CC1=O (stereo not shown)
OUT: ≤ 10 µM

IN: // lookup IC50 for CC(C)C(=O)N1CCN2c3cc(OCc4ccc(F)c(C#N)c4)nc(=O)n3CC2C1 (stereo not shown) [Example E290, 2,2,2-trifluoroacetate]
OUT: ≤ 10 µM

IN: // lookup IC50 for CN(C)C(=O)N1CCN2c3cc(OCc4ccc(F)c(F)c4)nc(=O)n3CC2C1 (stereo not shown)
OUT: ≤ 10 µM

IN: // lookup IC50 for O=C(C1CC1)N1CCN2c3cc(OCc4ccc(F)c(F)c4)nc(=O)n3CC2C1 (stereo not shown)
OUT: ≤ 10 µM

IN: // lookup IC50 for O=C1CN2c3cc(OCc4cc(F)c(Oc5cncc(C(F)(F)F)c5)c(F)c4)nc(=O)n3CC2CN1 (stereo not shown)
OUT: 0.000501 µM

IN: // lookup IC50 for CN1CCN2c3cc(OCc4ccc(F)c(F)c4)nc(=O)n3CC2C1 (stereo not shown)
OUT: ≤ 10 µM

IN: // lookup IC50 for NC1(C(=O)N2CCN3c4cc(OCc5ccc(F)c(F)c5)nc(=O)n4CC3C2)CCC1 (stereo not shown)
OUT: ≤ 10 µM

IN: // lookup IC50 for Cc1ccc(Oc2c(F)cc(COc3cc4n(c(=O)n3)CC3(CCOCC3)N4C)cc2F)cn1
OUT: ≤ 0.1 µM

IN: // lookup IC50 for O=c1nc(OCc2ccc(F)c(F)c2)cc2n1CC1(CCNCC1)N2
OUT: ≤ 10 µM

IN: // lookup IC50 for CCC(=O)N1CCN2c3cc(OCc4ccc(F)c(C#N)c4)nc(=O)n3CC2C1 (stereo not shown) [Example E289, 2,2,2-trifluoroacetate]
OUT: ≤ 10 µM

IN: // lookup IC50 for O=c1nc(OCc2cc(F)c(Oc3ccnc(C(F)(F)F)c3)c(F)c2)cc2n1CC1CS(=O)(=O)CCN21 (stereo not shown)
OUT: ≤ 10 µM

IN: // lookup IC50 for N#Cc1cc(COc2cc3n(c(=O)n2)CC2CNCCN32)ccc1OC1CCCC1 (stereo not shown)
OUT: ≤ 0.1 µM

IN: // lookup IC50 for CC(=O)N1CCC2(CC1)Cn1c(cc(OCc3ccc(F)c(F)c3)nc1=O)N2C(C)=O
OUT: ≤ 10 µM

IN: // lookup IC50 for O=C1CN2c3cc(OCc4cccc(F)c4F)nc(=O)n3CC2CN1 (stereo not shown)
OUT: ≤ 10 µM

This collection of values is drawn from patent US11999746B2.
